Taken from patent US20250011413A1.

Molecular target: T1, PF4/heparin complex (human PF4 complexed with heparin) (human, UniProt P02776 32-101)
T1 sequence: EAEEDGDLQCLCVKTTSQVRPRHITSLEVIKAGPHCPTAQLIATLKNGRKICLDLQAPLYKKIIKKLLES
Experiment: cell-based or functional assay
Reported % inhibition of 14C-serotonin release (SRA), HIT-Positive Patient #3 serum, scFv 75 µg/mL values for the following binders.
MEASURED QUANTITY: % inhibition of 14C-serotonin release (SRA), HIT-Positive Patient #3 serum, scFv 75 µg/mL

| BINDER | OBS VALUE |
| --- | --- |
| Mutant E scFv, scFv(Y156H, D180G, Q233P) (scFv, VL-linker-VH; histidine-tagged, from E. coli BL21; also called Mut E; not shown: histidine tag from the pADL-22c vector) scFv: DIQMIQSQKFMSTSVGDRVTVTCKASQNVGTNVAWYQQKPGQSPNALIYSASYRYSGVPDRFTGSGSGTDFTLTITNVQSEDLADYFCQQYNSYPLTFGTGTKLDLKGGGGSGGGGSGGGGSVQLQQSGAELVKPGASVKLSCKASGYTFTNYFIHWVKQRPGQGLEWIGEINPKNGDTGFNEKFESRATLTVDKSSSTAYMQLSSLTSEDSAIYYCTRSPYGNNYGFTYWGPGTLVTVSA | 9.6% |
| Wildtype scFv (KKO-derived single chain variable fragment) (scFv, VL-(G4S)3 linker-VH; expressed in E. coli BL21 from pADL-22c, purified on Ni-NTA as histidine-tagged scFv, about 28 kDa; also called WT; KKO-scFv; not shown: histidine tag from the pADL-22c vector) scFv: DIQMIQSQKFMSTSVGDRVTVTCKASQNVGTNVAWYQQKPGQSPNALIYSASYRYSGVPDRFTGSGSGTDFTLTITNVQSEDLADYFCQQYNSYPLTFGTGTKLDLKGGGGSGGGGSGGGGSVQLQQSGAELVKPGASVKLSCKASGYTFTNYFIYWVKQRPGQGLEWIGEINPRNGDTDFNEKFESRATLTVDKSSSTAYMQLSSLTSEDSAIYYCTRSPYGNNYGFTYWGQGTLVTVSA | 12% |
| Mutant C scFv, scFv(S50N, Y53H) (scFv, VL-linker-VH; histidine-tagged, from E. coli BL21; also called Mut C; not shown: histidine tag from the pADL-22c vector) scFv: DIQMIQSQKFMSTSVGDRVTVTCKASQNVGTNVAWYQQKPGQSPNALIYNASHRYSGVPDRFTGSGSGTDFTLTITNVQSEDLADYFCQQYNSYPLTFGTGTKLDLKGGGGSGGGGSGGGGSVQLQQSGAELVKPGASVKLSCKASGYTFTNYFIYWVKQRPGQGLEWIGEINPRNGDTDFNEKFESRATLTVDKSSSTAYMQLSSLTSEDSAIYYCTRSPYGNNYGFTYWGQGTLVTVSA | 9.6% |
| Mutant B scFv, scFv(R18K, N152K, D180N) (scFv, VL-linker-VH; histidine-tagged, from E. coli BL21; also called Mut B; not shown: histidine tag from the pADL-22c vector) scFv: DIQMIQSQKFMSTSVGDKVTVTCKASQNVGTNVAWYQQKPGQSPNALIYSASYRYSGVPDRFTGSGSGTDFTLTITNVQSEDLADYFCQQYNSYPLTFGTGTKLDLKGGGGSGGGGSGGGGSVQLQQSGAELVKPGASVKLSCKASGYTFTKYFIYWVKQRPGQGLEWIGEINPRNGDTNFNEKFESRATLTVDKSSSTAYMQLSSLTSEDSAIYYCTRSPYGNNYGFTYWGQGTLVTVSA | 14.5% |
